assay: yeast display, Sf9 membrane polyspecificity reagent, FACS + sequencing; frameworks hold sequencing errors
readout name: polyreactivity (PSR sort gate)

Look over these answered cases.
| item sequence | endpoint result |
| --- | --- |
| QVQLVESGGGLVQAGGSLRLSCAASGFIFRYNAMGWYRQAPGKERELVAVITSGGRTYYADSVKGRFTISRDNAKNTVYLQMNSLKPEDTAVYYCNADSRHRRNYDYWGQGTQVTVSS | high polyreactivity |
| QVQLVESGGGLVQAGGSLRLSCAASGITFYSYTMGWYIQAPGKERELVAAISDNGGRTFYADSVKGRFTISRDNAKNTVYLQMNSLKPEDTAVYYCAADSYWYRFLKSRYDYWGQGTQVTVSS | low polyreactivity |
| QVQLVESGGGLVQAGGSLRLSCAASGLNLAQYVMGWYRQAPGKERELVAAITWRGGGTYYADSVKGRFTISRDNAKYTVYLQMNSLKPEDTAVYYCNAVLYDGYVYNPGSTDDVDYWGQGTLVTVSS | high polyreactivity |
| QVQLVESGGGLVQAGGSLRLSCAASGRTFGKYAMGWYRQAPGKERELVATITRTARTNYADSVKGRFTNSRDNAKNTVYFQMNSLKPEDTAVYYCAKGWPAIYGTYDYWGQGTQVTVSS | high polyreactivity |

Consider QVHLVESGGGLVQAGGSLRLSCAASGFTFEGYAMGGYRQQPGKEREYADSVKGRFTISRDNAKNTVYLQMNSLKPEDTAVYYCASTSYVSSSRTIYSGFVEFEYLGQGTQVTVSS . Its measured polyreactivity (PSR sort gate) is low polyreactivity
